These entries and their values trace back to ChEMBL document CHEMBL1130772.

# pIC50 per entry
- TARGET: Progesterone receptor (Homo sapiens)
- Sequence (P06401 whole entry): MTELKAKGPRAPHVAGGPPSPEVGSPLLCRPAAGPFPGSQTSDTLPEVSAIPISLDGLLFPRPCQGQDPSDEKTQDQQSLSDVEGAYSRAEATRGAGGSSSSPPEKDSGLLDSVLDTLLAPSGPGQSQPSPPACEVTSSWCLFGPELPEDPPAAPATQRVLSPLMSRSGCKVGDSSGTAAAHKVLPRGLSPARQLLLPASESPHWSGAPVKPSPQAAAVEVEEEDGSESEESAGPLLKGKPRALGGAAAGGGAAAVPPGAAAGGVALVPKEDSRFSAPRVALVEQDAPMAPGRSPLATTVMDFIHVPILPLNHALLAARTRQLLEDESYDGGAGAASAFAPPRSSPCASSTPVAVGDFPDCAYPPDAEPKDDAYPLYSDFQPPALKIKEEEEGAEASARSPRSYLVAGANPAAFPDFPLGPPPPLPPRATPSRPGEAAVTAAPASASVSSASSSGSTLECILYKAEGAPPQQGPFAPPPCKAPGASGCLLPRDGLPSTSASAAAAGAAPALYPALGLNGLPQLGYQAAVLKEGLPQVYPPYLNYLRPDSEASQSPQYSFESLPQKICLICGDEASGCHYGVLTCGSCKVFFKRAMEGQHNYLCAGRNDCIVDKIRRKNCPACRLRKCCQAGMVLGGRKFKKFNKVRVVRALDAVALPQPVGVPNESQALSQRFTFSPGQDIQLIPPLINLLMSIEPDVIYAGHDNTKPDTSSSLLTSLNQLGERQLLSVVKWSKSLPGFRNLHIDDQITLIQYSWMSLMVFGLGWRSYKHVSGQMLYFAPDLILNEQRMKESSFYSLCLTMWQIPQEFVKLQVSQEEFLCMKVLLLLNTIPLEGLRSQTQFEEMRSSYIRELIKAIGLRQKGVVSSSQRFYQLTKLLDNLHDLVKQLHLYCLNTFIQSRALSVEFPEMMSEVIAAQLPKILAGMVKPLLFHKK
- PROTOCOL TEXT: Antagonistic activity against hPR in co-transfected CV-1 cell
- Format: functional, cell-based
Hey, just a heads up that pIC50 is the negative log base 10 of the concentration in molar.

Consider the following illustrative entries.
[[record]]
structure_smiles = "CC1(C)CCC[C@]2(C)c3cc4c(C(F)(F)F)cc(O)nc4cc3N[C@H]12"
recorded_number = 6.37

[[record]]
structure_smiles = "C[C@]12CCCC[C@H]1Nc1cc3[nH]c(=O)cc(C(F)(F)F)c3cc12"
recorded_number = 6.14

[[record]]
structure_smiles = "C[C@@H]1Cc2cc3c(C(F)(F)F)cc(O)nc3cc2N1"
recorded_number = 6.12

[[record]]
structure_smiles = "Oc1cc(C(F)(F)F)c2cc3c(cc2n1)N[C@@H]1CCCC[C@H]31"
recorded_number = 6.77

[[record]]
structure_smiles = "C[C@H]1CC[C@H]2Nc3cc4c(cc3[C@H]2C1)c(C(F)(F)F)cc(=O)n4C"
recorded_number = 6.42


So what does the record say about pIC50 for C[C@@H]1c2cc3c(C(F)(F)F)cc(O)nc3cc2N[C@@H]1C ?
5.72

So what does the record say about pIC50 for Cn1c(=O)cc(C(F)(F)F)c2cc3c(cc21)N[C@@H]1CCCC[C@H]31 ?
6.82

So what does the record say about pIC50 for CN1c2cc3c(cc2[C@H]2CCCC[C@H]21)c(C(F)(F)F)cc(=O)n3C ?
6.00

###

- TARGET: Glucocorticoid receptor (Homo sapiens) (UniProt P04150)
- PROTOCOL TEXT: Antagonistic activity against Glucocorticoid receptor in co-transfected CV-1 cell
- Type: functional, cell-based
MEASURE NAME: Efficacy (%)
Number in %, nothing else.

Consider the following illustrative entries.
[[record]]
structure_smiles = "C[C@@H]1c2cc3c(C(F)(F)F)cc(O)nc3cc2N[C@@H]1C"
measure_name = "Efficacy"
recorded_number = 35

[[record]]
structure_smiles = "C[C@]12CCCC[C@H]1Nc1cc3nc(O)cc(C(F)(F)F)c3cc12"
measure_name = "Efficacy"
recorded_number = 43

[[record]]
structure_smiles = "Oc1cc(C(F)(F)F)c2cc3c(cc2n1)N[C@@H]1CCCC[C@H]31"
measure_name = "Efficacy"
recorded_number = 33

[[record]]
structure_smiles = "Cn1c(=O)cc(C(F)(F)F)c2cc3c(cc21)N[C@@H]1CCCC[C@H]31"
measure_name = "Efficacy"
recorded_number = 39


# context switch: different molecule, same Efficacy
So what does the record say about Efficacy for CC1(C)CCC[C@]2(C)c3cc4c(C(F)(F)F)cc(O)nc4cc3N[C@H]12 ?
31

###

# pIC50 per entry
- TARGET: Glucocorticoid receptor (Homo sapiens)
- Sequence (P04150 whole entry): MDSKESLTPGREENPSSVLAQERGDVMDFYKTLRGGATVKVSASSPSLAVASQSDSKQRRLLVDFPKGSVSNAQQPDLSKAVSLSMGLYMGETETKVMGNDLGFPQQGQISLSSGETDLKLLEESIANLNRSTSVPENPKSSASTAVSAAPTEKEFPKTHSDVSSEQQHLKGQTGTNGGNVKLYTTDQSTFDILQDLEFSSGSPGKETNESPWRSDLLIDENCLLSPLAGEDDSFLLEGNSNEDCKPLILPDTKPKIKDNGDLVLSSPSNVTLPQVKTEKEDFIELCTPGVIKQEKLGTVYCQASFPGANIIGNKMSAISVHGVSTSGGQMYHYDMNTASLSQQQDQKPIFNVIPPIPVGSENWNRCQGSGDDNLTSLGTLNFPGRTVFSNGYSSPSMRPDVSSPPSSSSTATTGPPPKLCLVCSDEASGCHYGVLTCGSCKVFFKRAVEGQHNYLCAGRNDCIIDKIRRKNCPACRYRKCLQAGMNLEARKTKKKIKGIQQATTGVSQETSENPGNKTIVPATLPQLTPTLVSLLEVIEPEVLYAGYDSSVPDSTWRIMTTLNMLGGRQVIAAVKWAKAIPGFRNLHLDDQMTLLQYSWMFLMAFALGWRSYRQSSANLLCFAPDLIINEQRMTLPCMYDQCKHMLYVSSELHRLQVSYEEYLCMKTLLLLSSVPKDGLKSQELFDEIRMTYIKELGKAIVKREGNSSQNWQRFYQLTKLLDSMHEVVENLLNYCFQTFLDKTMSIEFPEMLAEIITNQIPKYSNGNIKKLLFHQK
- PROTOCOL TEXT: Antagonistic activity against Glucocorticoid receptor in co-transfected CV-1 cell
Hey, just a heads up that pIC50 is the negative log base 10 of the concentration in molar.

So what does the record say about pIC50 for C[C@@H]1c2cc3c(C(F)(F)F)cc(O)nc3cc2N[C@@H]1C ?
5.60

###

- TARGET: UniProt P10275
- PROTOCOL TEXT: Agonistic activity (EC50) against human androgen receptor (hAR) in co-transfected CV-1 cell
- Format: functional, cell-based
Define the label as Y when EC50 is strictly less than 20 nM and as N in all remaining cases.

Below are worked cases with known answers.
[[record]]
structure_smiles = "C[C@]12CCCC[C@H]1Nc1cc3[nH]c(=O)cc(C(F)(F)F)c3cc12"
class_label = "N"

[[record]]
structure_smiles = "C[C@H]1CC[C@H]2Nc3cc4nc(O)cc(C(F)(F)F)c4cc3[C@H]2C1"
class_label = "N"

[[record]]
structure_smiles = "C[C@@H]1c2cc3c(C(F)(F)F)cc(O)nc3cc2N[C@@H]1C"
class_label = "Y"


Let's switch to this compound now.
EC50 strictly < 20 nM for this compound? C[C@@H]1c2cc3c(C(F)(F)F)cc(=O)n(C)c3cc2N[C@@H]1C
Y

###

- TARGET: Androgen receptor (Homo sapiens)
- Sequence (P10275 whole entry): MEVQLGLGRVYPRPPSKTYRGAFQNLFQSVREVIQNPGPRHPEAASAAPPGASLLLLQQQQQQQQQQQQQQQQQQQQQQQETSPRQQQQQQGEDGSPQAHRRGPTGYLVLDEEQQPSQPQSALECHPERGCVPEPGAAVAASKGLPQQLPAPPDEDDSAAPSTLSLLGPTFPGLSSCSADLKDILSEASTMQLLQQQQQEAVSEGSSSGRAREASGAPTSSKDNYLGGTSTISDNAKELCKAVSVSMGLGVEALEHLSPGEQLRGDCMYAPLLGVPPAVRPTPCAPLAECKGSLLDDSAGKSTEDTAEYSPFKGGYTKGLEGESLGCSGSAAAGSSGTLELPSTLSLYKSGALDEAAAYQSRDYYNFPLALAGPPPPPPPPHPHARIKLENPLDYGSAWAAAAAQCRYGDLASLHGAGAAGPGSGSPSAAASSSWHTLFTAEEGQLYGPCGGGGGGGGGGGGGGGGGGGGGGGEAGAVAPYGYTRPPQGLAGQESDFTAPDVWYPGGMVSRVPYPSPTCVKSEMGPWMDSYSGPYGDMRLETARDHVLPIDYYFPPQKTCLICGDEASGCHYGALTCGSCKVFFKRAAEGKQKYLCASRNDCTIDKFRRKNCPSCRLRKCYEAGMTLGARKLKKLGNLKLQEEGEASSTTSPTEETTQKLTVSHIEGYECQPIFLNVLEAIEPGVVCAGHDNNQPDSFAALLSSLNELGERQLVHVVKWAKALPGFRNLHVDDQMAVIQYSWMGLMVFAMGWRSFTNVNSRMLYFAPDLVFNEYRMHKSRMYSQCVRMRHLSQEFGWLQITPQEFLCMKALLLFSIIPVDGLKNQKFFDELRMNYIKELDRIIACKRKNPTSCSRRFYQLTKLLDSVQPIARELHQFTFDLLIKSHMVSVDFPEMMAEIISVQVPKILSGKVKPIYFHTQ
- PROTOCOL TEXT: Binding affinity against Androgen receptor transfected into COS cells
MEASURE NAME: Ki (nM)
Number in nM, nothing else.

[[record]]
structure_smiles = "Cn1c(=O)cc(C(F)(F)F)c2cc3c(cc21)N[C@@H]1CCCC[C@H]31"
measure_name = "Ki"
units_label = "nM"
recorded_number = 4

[[record]]
structure_smiles = "C[C@@H]1CNc2cc3nc(O)cc(C(F)(F)F)c3cc21"
measure_name = "Ki"
units_label = "nM"
recorded_number = 17


So what does the record say about Ki for CN1c2cc3c(cc2[C@@]2(C)CCCC[C@@H]12)c(C(F)(F)F)cc(=O)n3C ?
97

So what does the record say about Ki for CC1(C)CCC[C@]2(C)c3cc4c(C(F)(F)F)cc(O)nc4cc3N[C@H]12 ?
77

So what does the record say about Ki for C[C@H]1CC[C@@H]2[C@H](C1)c1cc3c(C(F)(F)F)cc(=O)n(C)c3cc1N2C ?
78

So what does the record say about Ki for C[C@@H]1Cc2cc3c(C(F)(F)F)cc(O)nc3cc2N1 ?
10

So what does the record say about Ki for CC1(C)CNc2cc3nc(O)cc(C(F)(F)F)c3cc21 ?
28

So what does the record say about Ki for Cn1c(=O)cc(C(F)(F)F)c2cc3c(cc21)N[C@@H]1CCCC[C@]31C ?
9

So what does the record say about Ki for C[C@@H]1c2cc3c(C(F)(F)F)cc(=O)n(C)c3cc2N[C@@H]1C ?
10

So what does the record say about Ki for CN1c2cc3c(cc2[C@H]2CCCC[C@H]21)c(C(F)(F)F)cc(=O)n3C ?
10

###

# Efficacy per entry
- TARGET: UniProtKB P08235
- PROTOCOL TEXT: Antagonistic activity against hMR in co-transfected CV-1 cell
- Format: functional, cell-based
Number in %, nothing else.

[[record]]
structure_smiles = "C[C@@H]1c2cc3c(C(F)(F)F)cc(O)nc3cc2N[C@@H]1C"
recorded_number = 29

[[record]]
structure_smiles = "CC1(C)CCC[C@]2(C)c3cc4c(C(F)(F)F)cc(O)nc4cc3N[C@H]12"
recorded_number = 77

[[record]]
structure_smiles = "C[C@]12CCCC[C@H]1Nc1cc3nc(O)cc(C(F)(F)F)c3cc12"
recorded_number = 43

[[record]]
structure_smiles = "Cn1c(=O)cc(C(F)(F)F)c2cc3c(cc21)N[C@@H]1CCCC[C@H]31"
recorded_number = 58


# context switch: different molecule, same Efficacy
So what does the record say about Efficacy for Oc1cc(C(F)(F)F)c2cc3c(cc2n1)N[C@@H]1CCCC[C@H]31 ?
54

###

- TARGET: Mineralocorticoid receptor (Homo sapiens, UniProt P08235)
- Sequence (P08235 whole entry): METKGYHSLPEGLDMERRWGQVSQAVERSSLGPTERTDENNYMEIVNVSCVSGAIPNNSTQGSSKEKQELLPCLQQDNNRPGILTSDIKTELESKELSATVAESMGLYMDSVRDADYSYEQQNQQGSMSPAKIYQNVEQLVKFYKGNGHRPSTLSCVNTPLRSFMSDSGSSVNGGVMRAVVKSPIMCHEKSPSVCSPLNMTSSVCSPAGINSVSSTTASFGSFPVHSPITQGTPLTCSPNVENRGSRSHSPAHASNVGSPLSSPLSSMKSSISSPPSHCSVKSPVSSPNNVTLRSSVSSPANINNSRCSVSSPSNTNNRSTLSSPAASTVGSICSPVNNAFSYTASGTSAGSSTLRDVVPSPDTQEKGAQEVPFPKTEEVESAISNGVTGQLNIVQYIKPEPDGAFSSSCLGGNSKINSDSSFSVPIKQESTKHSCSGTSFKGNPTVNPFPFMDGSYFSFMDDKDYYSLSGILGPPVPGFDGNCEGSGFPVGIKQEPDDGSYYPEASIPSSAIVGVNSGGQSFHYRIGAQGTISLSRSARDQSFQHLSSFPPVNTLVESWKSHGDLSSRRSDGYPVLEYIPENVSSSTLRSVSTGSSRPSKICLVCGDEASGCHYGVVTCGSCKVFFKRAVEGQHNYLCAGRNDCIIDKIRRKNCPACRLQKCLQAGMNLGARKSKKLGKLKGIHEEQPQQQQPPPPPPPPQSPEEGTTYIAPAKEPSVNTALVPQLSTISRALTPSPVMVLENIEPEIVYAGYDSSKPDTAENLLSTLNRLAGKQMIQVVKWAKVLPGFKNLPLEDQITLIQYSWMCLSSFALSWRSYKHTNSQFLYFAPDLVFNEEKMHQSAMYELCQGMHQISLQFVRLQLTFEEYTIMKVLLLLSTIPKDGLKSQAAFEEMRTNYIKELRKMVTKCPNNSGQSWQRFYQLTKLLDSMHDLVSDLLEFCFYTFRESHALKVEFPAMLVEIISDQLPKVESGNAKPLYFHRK
- PROTOCOL TEXT: Antagonistic activity against hMR in co-transfected CV-1 cell
# IC50 per entry
Number in nM, nothing else.

So what does the record say about IC50 for Oc1cc(C(F)(F)F)c2cc3c(cc2n1)N[C@@H]1CCCC[C@H]31 ?
2000

So what does the record say about IC50 for C[C@]12CCCC[C@H]1Nc1cc3[nH]c(=O)cc(C(F)(F)F)c3cc12 ?
1900

So what does the record say about IC50 for C[C@@H]1c2cc3c(C(F)(F)F)cc(O)nc3cc2N[C@@H]1C ?
2000

So what does the record say about IC50 for CC1(C)CCC[C@]2(C)c3cc4c(C(F)(F)F)cc(O)nc4cc3N[C@H]12 ?
570

So what does the record say about IC50 for Cn1c(=O)cc(C(F)(F)F)c2cc3c(cc21)N[C@@H]1CCCC[C@H]31 ?
2900
